# target under test: D2/3 receptors
# assay method text: multi-injection SPECT protocol, 2T-5k full kinetic modeling
# Format: in vivo, rat
# test settings: NAc, mean of 3 rats, read-out: appKD
quantity kind: pKd
API: returns pKd as number; meaning -log10 of concentration in mol/L.

So what does the record say about pKd for CCN1CCC[C@H]1CNC(=O)c1cc(I)cc(OC)c1OC [[^123I]epidepride] ? 9.82

###

# target under test: D2/3 receptors
# assay method text: multi-injection SPECT protocol, 2T-5k full kinetic modeling
# Type: in vivo, rat
# test settings: Amy, mean of 3 rats, read-out: appKD
quantity kind: pKd
When answering, recall that pKd equals minus log10 of the concentration in mol/L, and write that number alone.

Param readout = pKd; param system = D2/3 receptors; param query = CCN1CCC[C@H]1CNC(=O)c1cc(I)cc(OC)c1OC [[^123I]epidepride] ; response: value 9.44
